run.description: inhibitors of Sendai virus-induced IRF3 signaling, primary screen, TLR/RLR signaling modifier project, cell-based, Sendai virus stimulus, luciferase, 10K MLSCN set (AID 602276);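 note: firefly luciferase from ISG56 promoter only with Renilla not read in this screen; 0% = Sendai virus plus DMSO and 100% = medium plus DMSO without virus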
measurement.conditions: HEK293 RL24 IRF3 luciferase reporter, at 10 µM, stronger effect = higher value
property.label: inhibition (%)
Unit % implied. Number only.

What inhibition value was documented for this compound, O=C(CCC(=O)c1cccs1)NCc1ccccc1 ?
-1.41

Quick one: inhibition for Cn1c(=O)c2c(nc(CN3CCCCC3)n2CCCc2ccccc2)n(C)c1=O ?
15.4

Reported inhibition, compound COC(=O)CC1SCCNC1=O (centres undefined) : ____
0.969

// query inhibition value for entry Cc1cc(C)n(-c2nc3sc4c(c3c3nnc(SCC(N)=O)n23)CC(C)(C)OC4)n1
6.12

What does the data say about its inhibition? Entry: COC(=O)CSC1=C(C#N)C(c2ccc(F)cc2)CC(=O)N1 (centres undefined)
10.2

I am curious: what inhibition value has been reported for CCOC(=O)c1ccc(NC(=O)Nc2ccn(C)n2)cc1 ?
-16.4

// returns reported inhibition for input CCCC(=O)Nc1nnc(CC(=O)OCC)s1
-5.88

Look up inhibition for this compound: CCOCCOc1nc2c(c(=O)n(C)c(=O)n2C)n1Cc1ccc(C)cc1
-11.5

* * *

run.description: DUSP6 inhibitors restoring Erk phosphorylation by chemical complementation, primary imaging in DUSP6-transfected HeLa (AID 609)
measurement.conditions: HeLa MKP-3 transfected, phospho-Erk imaging KS statistic; measured here: nuclear c-Myc green intensity z-score; at 10 µM; cells stimulated with TPA for 15 min
Each item that follows carries a reported z-score.
The reply should be a number, written without any unit.

Use these answered entries as a reference point.
COc1ccc(OC)c(NS(=O)(=O)c2ccc(N3CCCC3=O)cc2)c1 ... -0.903
Cc1ccccc1N1C(=O)C2ON(c3ccccc3)C(c3cccnc3)C2C1=O (stereo unspecified) ... 0.945
CCN(CC)c1nc(-c2cccc(OC)c2O)nc2ccccc12 ... -1.37
Cc1cccc(NC(=O)c2cc(N3CCOCC3)nc3ccccc23)c1 ... 1.5
O=C(NCC(F)(F)F)Nc1nnc(C(F)(F)F)s1 ... -0.154
Nc1c(C(=O)NCc2ccco2)sc2nc(N3CCOCC3)c3c(c12)CCCC3 ... 1.22
O=C(C1=C(O)C(=O)N(CCCN2CCOCC2)C1c1ccccn1)c1cc2ccccc2o1 (stereo unspecified) ... 0.459
COc1cccc(Cn2c(NCc3ccccn3)nc3c2c(=O)n(C)c(=O)n3C)c1 ... -1.34
CC1(C)Cc2c(c(-c3ccco3)[nH]c(=O)c2C#N)CS1 ... 0.427
N#CC1=C(N)OC2=C(C(=O)CCC2)[C@]12C(=O)N(CC(N)=O)c1ccccc12 ... 0.747

Would you kindly look at the next entry?
// query z-score value for entry COC(=O)c1ccc(CN(C(C)=O)c2ccccc2)o1
-0.22

* * *

inhibition listing for selected compounds.
run.description: inhibitors of TNFa-induced NFkB p65 translocation, primary screen, imaging, HUVEC, MLSMR starter and 10KST1 sets (AID 438);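 note: compound added about 3h40 before a 20 min TNFalpha stimulation; signal is the nuclear over cytoplasmic p65 intensity ratio per well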
measurement.conditions: HUVEC TNFa-induced p65 nuclear translocation; at 2 µM, stronger effect = higher value, 0% TNFa-plus-vehicle, 100% no-TNFa wells
Respond numerically; units are % and should not be typed.

CN1CCC(NC(=O)c2cccs2)CC1 ... 8.5
Clc1ccc(C2=Nn3c(nnc3-c3n[nH]c4c3CCC4)SC2)cc1Cl ... 3
CCOC(=O)CNS(=O)(=O)c1cc(-c2n[nH]c(=O)c3ccccc23)ccc1C ... -12.6

May I ask what inhibition has been recorded for CCOC(=O)c1cc(CC)sc1NC(=O)CCC(=O)O ?
-3.2

Quick one: inhibition of CC1(C(=O)CSc2nc3ccccc3[nH]2)CCC(=O)O1 (stereo unspecified) ?
-2

For the compound shown here, O=C(Cc1ccccc1)Nc1cccc(-c2nnc(-c3ccco3)o2)c1 , give the reported inhibition.
-8.6

Entry O=C(c1coc(=O)c(Br)c1)N1CCOCC1 has what inhibition?
2.4

Given the entry CCCCC(=O)C1CCN(Cc2ccccc2)CC1 , report its measured inhibition.
-0.5

Field request: inhibition | item: COc1ccc(C(=O)OC(C)CN2CCN(C)CC2)cc1OC (stereo unspecified)
2.6
